Item-by-item account of relative solubility at 20 uM
Settings: 20.0 µM
measuredParameter: relative solubility at 20 uM

>>> value("O=C1N(Cc2cccc(Cl)c2)CCN1c1nccc2n[nH]cc12")
0.92
>>> value("C=CC(=O)N(c1ccc(C(C)(C)C)cc1)C(C(=O)NC(C)(C)C)c1cnc[nH]1 (stereo unspecified)")
0.99
>>> value("N#Cc1ccc(CNC(=O)Cc2c[nH]c3ncccc23)nc1")
1
>>> value("NC(=O)CCN(C(=O)CCl)C1CCS(=O)(=O)C1 (stereo unspecified)")
1
>>> value("Cc1ccncc1NC(=O)Cc1cccc(OC(F)(F)F)c1")
0.98
>>> value("CNC(=O)OC1CCN(Cc2ccccc2)CC1")
0.99
